Reported values of growth inhibition for individual entries
measurementNotes: inhibition of 3D7 malaria parasite growth – strain 3D7 (AID 2306);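 further: 0% = DMSO wells and 100% = chloroquine plus artemisinin control wells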
measurementSetup: P. falciparum 3D7 erythrocytic growth, LDH absorbance, 72 h; at 2 µM; hits give high values
Activity calls are given as the source filed them. How the calls were made is not given here.

{"columns": ["compound", "growth inhibition"],
 "data": [
  ["Brc1ccc(Nc2nc(NCC3CCCO3)c3ccccc3n2)cc1 (stereo not given)", "100% (active)"],
  ["CCOC(=O)C(=CNc1ccc(Cc2cnc(N)nc2N)cc1CC)C(=O)OCC", "87% (active)"],
  ["CC(C)(CC1CCCCC1)NC(=O)[C@H](CC1CCCCC1)Nc1ccc(C#N)c2ccccc12", "98% (active)"],
  ["Cc1ccc(C(=O)Nc2ccc(C)c(OC3CCN(CCC(C)C)C3)c2)cc1 (stereo not given)", "99% (active)"],
  ["NC(=O)c1cccc(C(=O)Nc2cccc(-c3cccc(-c4nc5ccc(F)cc5[nH]4)c3)c2)c1", "100% (active)"],
  ["O=C(Nc1ccccc1)Nc1ccc(-n2ccc(C(F)(F)F)n2)cc1", "95% (active)"],
  ["COc1cc(F)c2ncc(F)c([C@@H](O)CN3CCC(NCc4cc5c(cn4)OCCO5)CC3)c2c1", "101% (active)"],
  ["COc1cc(Cc2cnc(N)nc2N)cc(OCCCOc2ccccc2)c1OC", "94% (active)"],
  ["c1cc(CN2CCCCC2)cc(-c2csc(-c3nc4ccccc4[nH]3)c2)c1", "90% (active)"],
  ["COc1nc2c(CCN3CCC(NCc4ccc5c(c4)NCCO5)CC3)c(Cl)cnc2cc1F", "102% (active)"]
]}

These measurements were taken from PubChem BioAssay.
